- Tested on: myeloid leukemia patient primary cells Pat.9
- TEST SUMMARY: cell viability (% survival relative to DMSO control); higher = less cytotoxic
- RUN CONDITIONS: 1 nM; 72 h
cell viability values by entry
EXPERIMENTAL READOUT: cell viability (%)

1. Oc1ccc(Nc2nc(-c3ccc(Cl)cc3)cs2)cc1 [SKI II]    20.1
2. O=C1c2cc([N+](=O)[O-])ccc2-n2c1nc1ccccc1c2=O [GNF-Pf-3777]    82.9
3. N#CC(C#N)=NNc1ccc(OC(F)(F)F)cc1 [FCCP]    54
4. O=C(C1CC1)N1CC[C@@H](C=C2NNC(=O)N2c2ccc(-c3ccc4occc4c3)cc2)C1    95.6
